Test system: BT-549
METHOD DESCRIPTION: NCI tumour cell line growth inhibition, 48 h
Calls of active or inactive are those of the source. Rule as the data show it: active = GI50 up to about 1.1 µM and inactive = higher.
Overview of recorded GI50 for various compounds

Please give the documented GI50 of O=C(O)CNC(=O)c1ccccc1O [SALICYLURIC ACID] > 100 µM (inactive)

Please give the documented GI50 of COc1cc2c(c3oc4c(O)cccc4c(=O)c13)CC(C(C)(O)CCl)O2 (stereo not given) 3.85 µM (inactive)

Please give the documented GI50 of C=C1[C@H](OC(C)=O)[C@H]2[C@@H](OC(C)=O)[C@@H](C)C[C@]2(C)C(=O)[C@H](C)/C=C/C(C)(C)C(=O)[C@H](OCC(C)C)[C@H]1OC(C)=O > 25 µM (inactive)

Please give the documented GI50 of CC(=O)OC1CC2(C)C(OC(C)=O)CC1C2(C)C (stereo not given) > 100 µM (inactive)

Please give the documented GI50 of O=C(O)CCC(C(=O)O)N1C(=O)c2ccccc2C1=O (stereo not given) > 100 µM (inactive)

====

Overview of recorded GI50 for various molecules
Test system: ACHN
METHOD DESCRIPTION: NCI tumour cell line growth inhibition, 48 h
The source made the active and inactive calls. No stated cut-off is given here; in the data, active = GI50 up to about 1.1 µM and inactive = higher.

Recorded GI50, per entry:
CCOC(=O)/C=C(/C(=O)OCC)n1cnc2c(=O)[nH]c(NC(C)=O)nc21    > 100 µM (inactive)
COc1ccc(/C=C2\CCC(Cc3ccccc3)(CN(C)C)C2=O)cc1 (configuration not stated)    82 µM (inactive)
CC12CC1C(c1cccc([N+](=O)[O-])c1)(c1cccc([N+](=O)[O-])c1)N=N2 (configuration not stated)    15.8 µM (inactive)

Please give the documented GI50 of CCOc1ccccc1NC(=O)C(=O)Cc1nc2ccccc2s1 > 100 µM (inactive)

Please give the documented GI50 of O=c1[nH]c(=O)n([C@H]2C[C@@H](CO)[C@@H](O)C2)cc1I > 100 µM (inactive)

Please give the documented GI50 of CCN(CC)CC1CCCCN1CC(=O)N1c2ccccc2NC(=O)CC1C (configuration not stated) > 100 µM (inactive)

Please give the documented GI50 of COC1OC2COC(c3ccccc3)OC2C(OC(=S)c2ccccc2)C1O (configuration not stated) 75.5 µM (inactive)

Please give the documented GI50 of COC(=O)C1=NC(=S)NC(c2ccccc2)C1c1nc2ccccc2s1 (configuration not stated) > 100 µM (inactive)

Please give the documented GI50 of CSC1=NN=C(SC)NN1 0.168 µM (active)

Please give the documented GI50 of CC(/C=C/C=C\C=C\C=C(/C)C(=O)NC(C)CO)=C\C(C)C(O)/C(C)=C/C(C)CCc1ccccc1 (configuration not stated) 0.274 µM (active)

====

System: UO-31
METHOD DESCRIPTION: NCI tumour cell line growth inhibition, 48 h
Activity calls are given as the source filed them. Rule as the data show it: active = GI50 up to about 1.1 µM and inactive = higher.
Give one outcome, nothing more. List: active, inactive

Query: recorded result category for CC[P+]1(c2ccccc2)[C@@H](C)CC[C@@H]1C in this test inactive

Query: recorded result category for O=[N+]([O-])C(=C(Nc1cccc2cccnc12)Nc1cccc2cccnc12)C(Cl)=C(Cl)Cl in this test inactive

Query: recorded result category for O=C1CSC(c2ccccc2[N+](=O)[O-])N1c1ccc(-c2ccc(-n3c(-c4ccccc4)nc4ccccc4c3=O)cc2)cc1 (configuration not stated) in this test inactive

Query: recorded result category for Cc1c(C(=O)OCc2ccccc2)[n+]([O-])c2cc(F)c(F)cc2[n+]1[O-] in this test inactive

Query: recorded result category for COc1ccc(/C=C2\CCC(Cc3ccccc3)(CN(C)C)C2=O)cc1 (configuration not stated) in this test inactive

Query: recorded result category for CC(=O)c1cn(-c2ccc(Cl)cc2)c(=O)c2c(N)n[nH]c12 in this test inactive

Query: recorded result category for CCOC(=O)c1[nH]cc(C)c1-c1cccn1-c1ccc(Cl)cc1[N+](=O)[O-] in this test inactive

Query: recorded result category for N#C/C(=C1\N=NC(N)=C(c2ccc(Cl)cc2)C1=O)c1ccc(Cl)cc1 in this test inactive

From: ChEMBL document CHEMBL1201862
